System: DU-145 prostate
EXPERIMENT DESCRIPTION: NCI tumour cell line growth inhibition, 48 h
Each entry below carries its reported GI50.
MEASURE: GI50

CCCCCCCCCCCCCC(=O)C(C)N (stereo unspecified) : 2.59 µM
COc1cc(C2=NN(c3ccc(S(N)(=O)=O)cc3)C(c3ccc(Cl)cc3)C2)cc(OC)c1OC (stereo unspecified) : 9.78 µM
CCCCCCC#CC#Cc1cccc(=O)o1 : 3.31 µM
COC(=O)OCc1ccc2c(c1)C(=O)c1c-2n(CCCBr)c(=O)c2cc([N+](=O)[O-])ccc12 : > 100 µM
CN1CCN(CCNc2ccc(CO)c3sc4ccccc4c(=O)c23)CC1 : 3.43 µM
COc1cc(/C=C2\CN(S(=O)(=O)c3ccccc3)C/C(=C\c3cc(CN4CCCCC4)c(O)c(OC)c3)C2=O)cc(CN2CCCCC2)c1O : 1.73 µM
O=C(Nc1cccc(O)c1)c1cccc(NC2=C(Cl)C(=O)N(Cc3ccccc3)C2=O)c1 : 3.61 µM
C=CCC(N[C@H](CO)c1ccccc1)c1cn(S(=O)(=O)c2ccc(C)cc2)c2ccccc12 (stereo partly specified) : 26.7 µM
Nc1ccc2ccc(NS(=O)(=O)N3CCCCC3)cc2c1 : 1.45 µM
COc1ccc(/C=C/C(=O)c2cc3c(N)c(C(=O)Nc4ccccc4C)sc3nc2C)cc1 : 0.431 µM
O=C(Nc1ccc(Cl)cc1)c1cc(S(=O)(=O)Nc2nnc(-c3ccccc3)c(-c3ccccc3)n2)c(SCc2ccccc2)cc1Cl : 37.2 µM
c1ccc2cc(Cn3c[n+](Cc4ccc5ccccc5c4)c4ccccc43)ccc2c1 : 1.51 µM
Cc1cccc2c1O/C(=C\c1ccc([N+](=O)[O-])o1)C2=O : 0.659 µM
O=C(Nc1ccccc1O)c1ccc(CNC(=O)c2sccc2Nc2ccnc(C(F)(F)F)c2)cc1 : 6.1 µM
[C-]#[N+][C@]12C(=O)[C@H](CCC1(C)C)C(C)(C)[C@H]1C(=O)N(C)c3cccc2c31 : 61.6 µM
O=C(O)c1cc(Cc2ccc(O)c(C(=O)O)c2)ccc1O (tested in a mixture with another compound) : 12 µM

###

System: OVCAR-4 ovarian
EXPERIMENT DESCRIPTION: NCI tumour cell line growth inhibition, 48 h; in the data active = GI50 below about 0.43 µM; inactive = the rest
Classes used: active, inactive

CCCCCCNc1nc(N2CCOCC2)c2[nH]c(NCCCCCC)nc2n1 : inactive
COc1cc(-c2cc(/C=C3\C(=O)Nc4ccccc43)[nH]n2)cc(OC)c1OC : inactive
O=C(Nc1ccc(Cl)cc1)c1cc(S(=O)(=O)Nc2nnc(-c3ccccc3)c(-c3ccccc3)n2)c(SCc2ccccc2)cc1Cl : inactive
C/C1=C/C(=O)O[C@@H]2C[C@@H](CC[C@H](C)/C=C\C=C\CC1)O[C@@](OCCc1ccccc1)([C@@H]1CSC(=O)N1)C2 : active
COC(=O)C1(C2CC/C(C)=C/CC/C(C)=C/CC[C@@]3(C)O[C@@H]3C2)CC1 (some centres undefined) : inactive
CC(=O)c1cc2c(c3ccsc13)-c1ccccc1CC2 : inactive
O=S(=O)(NCCNc1cc(-c2cn(-c3ccccc3)nc2-c2cccc(O)c2)ccn1)c1ccc(Cl)cc1 : inactive
CC(=O)/C=C/C1=C(c2cccs2)c2ccccc2CC1 : inactive
Cc1cc(C)n(C(=O)c2nn(-c3ccc(Cl)cc3)cc2O)n1 : inactive
